Quick list: inhibition per entry.
Target: Estrogen receptor beta (Homo sapiens)
Test: displacement of fluorescent estrogen from ERbeta – cell-based, Cos7 ERbeta-GFP, flow cytometry, primary screen (AID 1210);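 further: 0% = DMSO vehicle wells and 100% = complete loss of labeled estradiol signal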
Settings: fluorescent estrogen binding, at 10 µM, active compounds read high
Number in %, nothing else.

Consider the following illustrative entries.
CC(=O)N1c2ccc(Cl)cc2C2C=CCC2C1c1cccc2ccccc12 (centres undefined) = 51
CCCSC1=N/C(=C\C=C\c2ccco2)C(=O)S1 = 47
COc1cccc2sc(Nc3nnc(-c4ccc(F)cc4)o3)nc12 = 33

Shifting focus to the compound that follows.
Task: Value lookup for inhibition; key = CC(C)C1Nc2ccc(C(=O)O)cc2C2C=CCC21 (centres undefined)
Output: 35
